All figures here come from patent US12264139B2.

Recorded EC50 values for a group of compounds are listed next.
target: human BLT1 receptor (Homo sapiens); construct: expressed in transfected cells; host or cells: HEK293; experiment: BLT-1 cAMP Assay; type: cell-based; settings: HEK293 cells recombinantly expressing human BLT1; antagonist activity vs forskolin 4 μM and LTB4 2 nM; cAMP (CisBio kit)
Sequence (Q15722 whole entry): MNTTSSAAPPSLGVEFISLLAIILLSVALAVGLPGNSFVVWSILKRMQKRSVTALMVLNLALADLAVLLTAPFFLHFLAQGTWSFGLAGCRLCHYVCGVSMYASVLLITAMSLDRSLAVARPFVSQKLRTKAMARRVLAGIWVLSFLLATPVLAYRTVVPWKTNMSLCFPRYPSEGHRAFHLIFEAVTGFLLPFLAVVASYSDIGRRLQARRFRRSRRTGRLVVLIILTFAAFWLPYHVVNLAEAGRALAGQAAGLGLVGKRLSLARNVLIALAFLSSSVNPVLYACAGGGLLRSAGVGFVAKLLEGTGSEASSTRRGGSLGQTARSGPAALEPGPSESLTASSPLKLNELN
Please state the figure in nM; there is no need to write the unit.

Below: 3 compounds and their reported EC50.
compound="O=S(=O)(Nc1ccccc1-c1ccc2c(c1)OC[C@H](Cc1cscn1)[C@H]2O)C(F)(F)F (single isomer, unassigned)" unit_string=nM val=29
compound="O=S(=O)(Nc1ccccc1-c1ccc2c(c1)OC[C@H](Cc1ccc(F)cn1)[C@H]2O)C(F)(F)F (racemic)" unit_string=nM val=464
compound="O=S(=O)(Nc1ccc(F)cc1-c1ccc2c(c1)OC[C@@H](Cc1ccccn1)[C@@H]2O)C(F)(F)F (single isomer, unassigned)" unit_string=nM val=14

[Q] Note EC50 for the compound shown: O=S(=O)(Nc1ccccc1-c1ccc2c(c1)OCC(Cc1cccnc1)C2O)C(F)(F)F (racemic)
[A] 3510

[Q] Note EC50 for the compound shown: O=S(=O)(Nc1ccccc1-c1ccc2c(c1)OC[C@@H](Cc1cscn1)[C@@H]2O)C(F)(F)F (racemic) [Example 32]
[A] 17

[Q] Note EC50 for the compound shown: O=S(=O)(Nc1ccccc1-c1ccc2c(c1)OC[C@@H](Cc1ccncc1)[C@@H]2O)C(F)(F)F (single isomer, unassigned)
[A] 412
